Data origin, for the record: patent US20260000676A1

Below, each entry is listed alongside its reported Dmax.
- measurement.target: ER (Homo sapiens (Human))
- experiment.summary: In-cell western (ICW) ER degradation assay in MCF-7 cells
- Type: cell-based
- measurement.setup: MCF7, maximal ER degradation, MCF7, 16 hrs

Study these solved cases before continuing.
>>> result("O=C1CC[C@@H](N2Cc3cc4c(cc3C2=O)OCC42CCN(CC3CCC4(CC3)CN(c3ccc([C@H]5c6ccc(O)cc6OC[C@H]5c5ccccc5)cc3)C4)CC2)C(=O)N1")
"50 to 75%"
>>> result("O=C1CC[C@@H](N2Cc3cc4c(cc3C2=O)OCC2CN(CC3CCC5(CC3)CN(c3ccc([C@H]6c7ccc(O)cc7OC[C@H]6c6ccccc6)cc3)C5)CCN42)C(=O)N1 (stereo in doubt)")
"≥ 75%"

Query molecule follows.
QUERY: Recall and state the measured Dmax for O=C1CCC(Nc2ccc(N3CCN(CC4CC5(CCN(c6ccc([C@@H]7c8ccc(O)cc8OC[C@@H]7c7ccccc7)cc6)CC5)C4)CC3)c(F)c2)C(=O)N1 (stereo partly drawn) .
RESULT: < 25%

* * *

- measurement.target: ER (Homo sapiens (Human))
- experiment.summary: In-cell western (ICW) ER degradation assay in MCF-7 cells
- Assay type: cell-based
- measurement.setup: MCF7, maximal ER degradation, MCF7, 16 hrs
- Description: ERa degradative activity of compounds can be assessed in MCF-7 and T47D Cells. MCF-7 and T47D cell are seeded and are subsequently treated with the compounds at certain concentrations (e.g., 0.02 to 300 nM). DMSO can be used as vehicle control. Cells are fixed and are blocked with Intercept (PBS) Blocking Buffer (e.g., Li-COR, Odyssey Blocking Buffer), and are stained with ER (e.g., 1:500, Cell signaling) primary antibody for overnight at cold room. […]
endpoint.name: Dmax

>>> result("O=C1CCC(N2Cc3cc4c(cc3C2=O)OC[C@@H]2CN(CC3CCN(c5ccc([C@@H]6c7ccc(O)cc7OC[C@@H]6c6ccccc6)cc5F)CC3)CCN42)C(=O)N1 (single isomer, unassigned)")
"50 to 75%"

Query compound follows.
QUERY: Look up and report measured Dmax (ER (Homo sapiens (Human))) for the following compound: O=C1CCC(N2C(=O)c3cc4c(cc3C2=O)CN(CC(=O)N2CC3(CCN(c5ccc([C@H]6c7ccc(O)cc7OC[C@H]6c6ccccc6)cc5)CC3)C2)C4)C(=O)N1 (single isomer, unassigned)
RESULT: < 25%

* * *

- measurement.target: ER (Homo sapiens (Human), UniProt P03372)
- Sequence (P03372 whole entry): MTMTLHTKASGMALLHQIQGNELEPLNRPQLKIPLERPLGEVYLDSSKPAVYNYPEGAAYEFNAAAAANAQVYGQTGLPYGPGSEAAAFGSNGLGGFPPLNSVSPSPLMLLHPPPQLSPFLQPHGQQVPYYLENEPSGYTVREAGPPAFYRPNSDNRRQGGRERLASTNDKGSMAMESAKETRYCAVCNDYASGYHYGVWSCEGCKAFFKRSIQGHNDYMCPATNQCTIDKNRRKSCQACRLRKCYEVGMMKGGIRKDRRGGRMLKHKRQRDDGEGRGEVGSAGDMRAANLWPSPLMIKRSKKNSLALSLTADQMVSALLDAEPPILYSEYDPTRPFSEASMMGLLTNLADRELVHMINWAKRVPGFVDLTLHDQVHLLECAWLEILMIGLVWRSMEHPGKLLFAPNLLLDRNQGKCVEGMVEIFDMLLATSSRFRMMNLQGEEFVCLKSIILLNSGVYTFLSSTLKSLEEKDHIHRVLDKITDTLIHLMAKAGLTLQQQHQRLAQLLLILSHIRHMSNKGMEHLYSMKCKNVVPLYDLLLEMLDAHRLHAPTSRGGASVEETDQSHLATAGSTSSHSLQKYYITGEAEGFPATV
- experiment.summary: In-cell western (ICW) ER degradation assay in MCF-7 cells
- Format: cell-based
- measurement.setup: ER degradation, MCF7, 16 hrs
endpoint.name: DC50

QUERY: Recall and state the measured DC50 for O=C1CCC(N2Cc3cc4c(cc3C2=O)CN(C(=O)CN2CCC3(CC2)CCN(c2ccc([C@@H]5c6ccc(O)cc6OC[C@@H]5c5ccccc5)cc2)CC3)C4)C(=O)N1 (single isomer, unassigned) .
RESULT: > 100 nM

QUERY: Recall and state the measured DC50 for COc1cc(N2CCC(CN3CCN4c5cc6c(cc5OC[C@H]4C3)C(=O)N(C3CCC(=O)NC3=O)C6)CC2)ccc1[C@H]1c2ccc(O)cc2OC[C@H]1c1ccccc1 (stereo partly drawn) .
RESULT: < 1 nM

QUERY: Recall and state the measured DC50 for O=C1CCC(N2Cc3cc4c(cc3C2=O)OCC42CCN(CC3CCC4(CC3)CN(c3ccc([C@H]5c6ccc(O)cc6OC[C@H]5c5ccccc5)cc3)C4)CC2)C(=O)N1 (stereo partly drawn) .
RESULT: < 1 nM
